For each of the molecules below, state its pIC50.
- assayed.system: Nucleotide-binding oligomerization domain-containing protein 2 (Homo sapiens)
- Sequence (Q9HC29 whole entry, the tested form may be a part): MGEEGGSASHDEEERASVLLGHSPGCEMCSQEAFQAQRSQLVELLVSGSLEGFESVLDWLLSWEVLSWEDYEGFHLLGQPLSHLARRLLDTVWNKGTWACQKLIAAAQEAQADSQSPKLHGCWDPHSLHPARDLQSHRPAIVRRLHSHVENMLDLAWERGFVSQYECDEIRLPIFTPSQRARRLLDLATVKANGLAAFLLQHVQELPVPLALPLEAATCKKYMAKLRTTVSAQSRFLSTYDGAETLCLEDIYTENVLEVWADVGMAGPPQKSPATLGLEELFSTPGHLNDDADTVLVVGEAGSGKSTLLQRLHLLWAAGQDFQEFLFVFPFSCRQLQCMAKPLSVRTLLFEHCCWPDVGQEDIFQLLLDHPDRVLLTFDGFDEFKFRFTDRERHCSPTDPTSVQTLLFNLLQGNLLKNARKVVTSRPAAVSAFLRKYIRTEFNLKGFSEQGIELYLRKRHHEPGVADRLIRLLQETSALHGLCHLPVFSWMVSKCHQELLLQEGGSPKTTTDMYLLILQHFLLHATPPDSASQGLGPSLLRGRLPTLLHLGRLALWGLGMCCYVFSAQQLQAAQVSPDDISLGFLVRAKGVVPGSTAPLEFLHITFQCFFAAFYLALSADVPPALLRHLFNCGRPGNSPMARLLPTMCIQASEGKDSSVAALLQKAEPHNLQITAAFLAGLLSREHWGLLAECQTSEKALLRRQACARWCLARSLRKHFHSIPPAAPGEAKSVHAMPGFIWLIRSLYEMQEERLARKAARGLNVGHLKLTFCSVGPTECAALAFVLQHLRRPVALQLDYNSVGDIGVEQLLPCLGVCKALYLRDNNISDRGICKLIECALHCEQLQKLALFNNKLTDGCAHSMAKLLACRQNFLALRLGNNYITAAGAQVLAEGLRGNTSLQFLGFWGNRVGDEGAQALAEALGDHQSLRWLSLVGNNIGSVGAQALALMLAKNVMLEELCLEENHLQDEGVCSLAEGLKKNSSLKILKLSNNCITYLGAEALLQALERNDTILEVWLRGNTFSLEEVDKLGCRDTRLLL
- test.description: Antagonist activity at human NOD2 expressed in HEK-Blue cells assessed as inhibition of MDP-stimulated cell activation preincubated for 3 hrs followed by MDP addition measured after 20 hrs by SEAP reporter gene assay
Remember the convention: pIC50 equals -log10 of concentration in molar.

Given item CCCCN(CCCC)C(=O)CC[C@H]1NC(=O)c2cc(Oc3cccc(N(C)C)c3)c(NC(=O)COCc3ccccc3)cc2NC1=O , the value recorded as its pIC50 is 5.88

pIC50 in this record for COC(=O)CC[C@H]1NC(=O)c2cc(Oc3cccc(N4CCCC4)c3)c(NC(=O)COCc3ccc(Cl)cc3)cc2NC1=O : 5.82

The molecule COC(=O)CC[C@H]1NC(=O)c2cc(Oc3cccc(N(C)C)c3)c(NC(=O)COCc3ccc(Br)cc3)cc2NC1=O showed pIC50 equal to 5.92

Measured pIC50 of CN(C)c1cccc(Oc2cc3c(cc2NC(=O)COCc2ccccc2)NC(=O)[C@@H](CCC(=O)NC2CC2)NC3=O)c1 : 5.15

Value of pIC50 reported for the molecule COC(=O)CC[C@H]1NC(=O)c2cc(Oc3cccc(N(C)C)c3)c(NC(=O)COCc3ccc(Cl)cc3)cc2NC1=O is 5.91

molecule CN(C)c1cccc(Oc2cc3c(cc2NC(=O)COCc2ccccc2)NC(=O)[C@@H](CCC(=O)N2CCCC2)NC3=O)c1 , pIC50 observed: 5.42

Record summary for CN(C)c1cccc(Oc2cc3c(cc2NC(=O)COCc2ccccc2)NC(=O)[C@@H](CCC(=O)N2CCCCC2)NC3=O)c1 : reported pIC50 = 5.52

----------
- assayed.system: Nucleotide-binding oligomerization domain-containing protein 1 (Homo sapiens) (UniProt Q9Y239)
- Sequence (whole entry): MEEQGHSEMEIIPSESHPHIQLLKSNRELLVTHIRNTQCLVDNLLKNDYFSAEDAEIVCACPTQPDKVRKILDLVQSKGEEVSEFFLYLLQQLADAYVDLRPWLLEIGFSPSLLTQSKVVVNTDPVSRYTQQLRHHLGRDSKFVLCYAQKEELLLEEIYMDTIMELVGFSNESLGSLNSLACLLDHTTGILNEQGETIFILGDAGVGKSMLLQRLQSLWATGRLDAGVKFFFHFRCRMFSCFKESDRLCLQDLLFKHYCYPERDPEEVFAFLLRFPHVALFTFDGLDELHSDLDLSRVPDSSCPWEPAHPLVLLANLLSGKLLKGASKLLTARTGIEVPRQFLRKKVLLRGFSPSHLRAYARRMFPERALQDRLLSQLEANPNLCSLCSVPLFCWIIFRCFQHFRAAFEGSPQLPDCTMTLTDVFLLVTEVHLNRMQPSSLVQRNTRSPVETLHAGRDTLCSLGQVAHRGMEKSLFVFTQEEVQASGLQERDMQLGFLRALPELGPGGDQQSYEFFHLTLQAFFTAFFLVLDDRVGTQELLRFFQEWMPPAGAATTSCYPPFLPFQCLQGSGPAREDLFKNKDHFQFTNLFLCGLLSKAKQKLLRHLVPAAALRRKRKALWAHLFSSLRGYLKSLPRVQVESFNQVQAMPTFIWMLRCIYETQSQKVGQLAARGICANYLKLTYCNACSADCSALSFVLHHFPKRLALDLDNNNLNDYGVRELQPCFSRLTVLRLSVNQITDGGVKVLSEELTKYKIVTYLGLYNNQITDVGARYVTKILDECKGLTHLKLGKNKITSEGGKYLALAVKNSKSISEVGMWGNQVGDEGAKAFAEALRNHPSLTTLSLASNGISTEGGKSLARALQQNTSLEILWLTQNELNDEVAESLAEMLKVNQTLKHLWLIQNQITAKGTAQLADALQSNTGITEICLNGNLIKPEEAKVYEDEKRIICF
- test.description: Antagonist activity at human NOD1 expressed in HEK-blue cells assessed as inhibition of C12-iE-DAP-stimulated cell activation at 5 uM preincubated for 3 hrs followed by C12-iE-DAP addition measured after 20 hrs by SEAP reporter gene assay
- Assay type: cell-based
attribute.measured: inhibition (%)
Dear colleague, please return just the value in %, with no unit written.

// sample C[C@@H]1NC(=O)c2cc(Oc3cccc(N(C)C)c3)c(NC(=O)COCc3ccc(C(F)(F)F)cc3)cc2NC1=O , its inhibition was 73.8

Please fill in: inhibition reported for CN1CCN(C(=O)CC[C@H]2NC(=O)c3cc(Oc4cccc(N(C)C)c4)c(NC(=O)COCc4ccccc4)cc3NC2=O)CC1 = 21.7

So, COC(=O)CC[C@H]1NC(=O)c2cc(Oc3cccc(N(C)C)c3)c(NC(=O)COCc3ccc(Cl)cc3)cc2NC1=O ? Its inhibition was 90.7

In plain terms, COC(=O)CC[C@H]1NC(=O)c2cc(Oc3ccc(Cl)c(N(C)C)c3)c(NC(=O)COCc3ccc(Cl)cc3)cc2NC1=O has a documented inhibition of 71.8

Data point: COC(=O)CC[C@H]1NC(=O)c2cc(Oc3cccc(N(C)C)c3)c(NC(=O)COCc3cccc(F)c3)cc2NC1=O ; inhibition = 83.9

Lab note: CN(C)c1cccc(Oc2cc3c(cc2NC(=O)COCc2ccccc2)NC(=O)[C@@H](CCC(=O)N2CCNCC2)NC3=O)c1 gave inhibition of 33.4

Reported inhibition for CCCNC(=O)CC[C@H]1NC(=O)c2cc(Oc3cccc(N(C)C)c3)c(NC(=O)COCc3ccc(Br)cc3)cc2NC1=O was 50.2

Entry COC(=O)CC[C@H]1NC(=O)c2cc(Oc3cccc(N(C)C)c3)c(NC(=O)COCc3ccc(C(C)(C)C)cc3)cc2NC1=O ; inhibition = 67.7

Memo: CN(C)c1cccc(Oc2cc3c(cc2NC(=O)COCc2ccccc2)NC(=O)[C@@H](CCC(=O)N2CCCCC2)NC3=O)c1 , reported inhibition: 82.8

Record summary for CN(C)c1cccc(Oc2cc3c(cc2NC(=O)COCc2ccccc2)NC(=O)[C@@H](CCC(=O)NC(C)(C)C)NC3=O)c1 : reported inhibition = 80.3

Memo: CCCNC(=O)CC[C@H]1NC(=O)c2cc(Oc3cccc(N(C)C)c3)c(NC(=O)COCc3ccc(F)cc3)cc2NC1=O , reported inhibition: 68

Short answer for CN(C)C(=O)CC[C@H]1NC(=O)c2cc(Oc3cccc(N(C)C)c3)c(NC(=O)COCc3ccccc3)cc2NC1=O : inhibition was 43.1

Briefly, inhibition measured for COC(=O)CC[C@H]1NC(=O)c2cc(Oc3cccc(N(C)C)c3)c(NC(=O)COCc3ccc(Br)cc3)cc2NC1=O : 91

Lab book: inhibition of CN(C)c1cccc(Oc2cc3c(cc2NC(=O)COCc2ccc(Cl)cc2)NC(=O)[C@@H](CCC(=O)N2CCCCC2)NC3=O)c1 noted as 82.9

compound COC(=O)CC[C@H]1NC(=O)c2cc(Oc3cccc(N(C)C)c3Cl)c(NC(=O)COCc3ccccc3)cc2NC1=O , inhibition observed: 55.8

Query COC(=O)CC[C@H]1NC(=O)c2cc(Oc3cccc(N(C)C)c3)c(NC(=O)COCc3ccc(F)cc3)cc2NC1=O yields inhibition of 73.7

get_value(item= COC(=O)CC[C@H]1NC(=O)c2cc(Oc3ccccc3)c(NC(=O)COCc3ccc(C(F)(F)F)cc3)cc2NC1=O , readout=inhibition) returns 42.4

compound CCCNC(=O)CC[C@H]1NC(=O)c2cc(Oc3cccc(N(C)C)c3)c(NC(=O)COCc3ccccc3)cc2NC1=O , inhibition observed: 77.7

Memo: CCCCCCCCCCCCCCCCCCNC(=O)CC[C@H]1NC(=O)c2cc(Oc3cccc(N(C)C)c3)c(NC(=O)COCc3ccccc3)cc2NC1=O , reported inhibition: 12.7

Short answer for CN(C)c1cccc(Oc2cc3c(cc2NC(=O)COCc2ccccc2)NC(=O)[C@@H](CCC(=O)NC2CC2)NC3=O)c1 : inhibition was 35.8

Just so you know, measured inhibition for C=CCOCC(=O)Nc1cc2c(cc1Oc1cccc(N(C)C)c1)C(=O)N[C@H](CCC(=O)OC)C(=O)N2 came out at 43.3
